# test_system: BCL6 (Homo sapiens (Human))
# method: Immunofluorescence high content imaging of BCL6 degradation in T47D cells
# Assay type: cell-based
# recorded_conditions: T47D cells
Can you tell me IC50 for the items I'm about to list?

# compound, IC50
records = [
    ("CNC(=O)COc1cc2cc(Nc3nc(N4CCC[C@H](COc5cccc6c5C(=O)N(C5CCC(=O)NC5=O)C6=O)C4)ncc3Cl)ccc2n(CCC2CC2)c1=O (stereo partly drawn)", "< 10 nM"),
    ("CNC(=O)COc1cc2cc(Nc3nc(N4CCC(CCN5CCN(c6ccc7c(c6)C(=O)N(C6CCC(=O)NC6=O)C7=O)CC5)CC4)ncc3Cl)ccc2n(C)c1=O (stereo not drawn)", "< 10 nM"),
    ("CNC(=O)COc1cc2cc(Nc3nc(N4CCN(CC5CCN(C(=O)c6ccc(OC)c(N7CCC(=O)NC7=O)c6)CC5)CC4)ncc3Cl)ccc2n(C(C)C)c1=O", "< 10 nM"),
]

Hi team, please reply with IC50 for each item in this list.
1. CNC(=O)COc1cc2cc(Nc3nc(N4CCC(CN5CCC6(CC5)CN(c5ccc(C(=O)NC7CCC(=O)NC7=O)c(OC)c5)C6)CC4)ncc3Cl)ccc2n(C(C)C)c1=O (stereo not drawn)
2. CNC(=O)COc1cc2cc(Nc3nc(N4CCN(CCN5CCN(c6cccc7c6C(=O)N(C6CCC(=O)NC6=O)C7=O)CC5)CC4)ncc3Cl)ccc2n(C)c1=O (stereo not drawn)
3. CCn1c(=O)c(OCC(=O)NC)cc2cc(Nc3nc(N4CCC(COC5CCN(c6ccc7c(c6)C(=O)N(C6CCC(=O)NC6=O)C7=O)CC5)CC4)ncc3Cl)ccc21 (stereo not drawn)

1: < 10 nM; 2: < 10 nM; 3: < 10 nM

Hi team, please reply with IC50 for each item in this list.
1. CNC(=O)COc1cc2cc(Nc3nc(N4CCN(CC5CCCN5c5cccc6c5C(=O)N(C5CCC(=O)NC5=O)C6=O)CC4)ncc3Cl)ccc2n(C(C)C)c1=O (stereo not drawn)
2. CCCCn1c(=O)c(OCC(=O)NC)cc2cc(Nc3nc(N4CCN(CC5CCN(c6ccc7c(c6)C(=O)N(C6CCC(=O)NC6=O)C7=O)CC5)CC4)ncc3Cl)ccc21 (stereo not drawn)

< 10 nM
< 10 nM

* * *

# test_system: UniProtKB P41182
# method: BCL6 TR-FRET assay (BCL6-Avitag-Biotin / BCoR-Cy5 peptide)
# Format: binding
# recorded_conditions: read-out: IC50
measured_endpoint: IC50

Previously resolved entries follow.
# compound, IC50
data = [
    ("CNC(=O)COc1cc2cc(Nc3nc(N4CCC(N5CCC6(CCN(c7cccc8c7C(=O)N(C7CCC(=O)NC7=O)C8=O)C6)CC5)CC4)ncc3Cl)ccc2n(C(C)C)c1=O (centres unmarked) [compound 528]", "10 to 50 nM"),
    ("CNC(=O)COc1cc2cc(Nc3nc(N4CCN(C[C@H]5C[C@H](N6CCN(c7cccc8c7C(=O)N(C7CCC(=O)NC7=O)C8=O)CC6)C5)CC4)ncc3Cl)ccc2n(C(C)C)c1=O (some centres unmarked) [compound 537]", "< 10 nM"),
    ("CNC(=O)COc1cc2cc(Nc3nc(N4CCN(CC5CC6(C5)CN(c5ccc7c(c5)C(=O)N(C5CCC(=O)NC5=O)C7=O)C6)CC4)ncc3Cl)ccc2n(C(C)C)c1=O (centres unmarked) [compound 523]", "< 10 nM"),
    ("CNC(=O)COc1cc2cc(Nc3nc(N4CCC(CN5CC(N6CCC(c7ccc8c(c7)C(=O)N(C7CCC(=O)NC7=O)C8=O)CC6)C5)CC4)ncc3Cl)ccc2n(C(C)C)c1=O (centres unmarked) [compound 538]", "< 10 nM"),
    ("CNC(=O)COc1cc2cc(Nc3nc(N4CCN(CC5CC6(C5)CN(c5cccc7c5C(=O)N(C5CCC(=O)NC5=O)C7=O)C6)CC4)ncc3Cl)ccc2n(C(C)C)c1=O (centres unmarked) [compound 529]", "< 10 nM"),
]

Hi team, please reply with IC50 for each item in this list.
1. CNC(=O)COc1cc2cc(Nc3nc(N4CC5(CCC(OC6CCN(c7cccc8c7C(=O)N(C7CCC(=O)NC7=O)C8=O)CC6)CC5)C4)ncc3Cl)ccc2n(C(C)C)c1=O (centres unmarked) [compound 445]
2. CNC(=O)COc1cc2cc(Nc3nc(N4CCC(N5CCC6(CCN(c7cccc8c7C(=O)N(C7CCC(=O)NC7=O)C8=O)CC6)C5)CC4)ncc3Cl)ccc2n(C(C)C)c1=O (centres unmarked) [compound 527]
3. CNC(=O)COc1cc2cc(Nc3nc(N4CCN(CC5CCN(c6cccc7c6C(=O)N(C6CCC(=O)NC6=O)C7=O)CC5)CC4)ncc3Cl)ccc2n(CCOC)c1=O (centres unmarked) [compound 454]
4. CNC(=O)COc1cc2cc(Nc3nc(N4CCC(CN5CC6(CCN(c7cccc8c7CN(C7CCC(=O)NC7=O)C8=O)CC6)C5)CC4)ncc3Cl)ccc2n(C(C)C)c1=O (centres unmarked) [compound 448]
5. CNC(=O)COc1cc2cc(Nc3nc(N4CCC(O[C@H]5C[C@H](COc6ccc7c(c6)C(=O)N(C6CCC(=O)NC6=O)C7=O)N(C)C5)CC4)ncc3Cl)ccc2n(C(C)C)c1=O (some centres unmarked) [compound 458]
6. CNC(=O)COc1cc2cc(Nc3nc(N4CCC(CN5CCC6(CC5)CCN(c5ccc(N7CCC(=O)NC7=O)c(OC)c5)C6)CC4)ncc3Cl)ccc2n(C(C)C)c1=O [compound 509]

1. < 10 nM
2. < 10 nM
3. < 10 nM
4. < 10 nM
5. 50 to 100 nM
6. ≥ 100 nM

* * *

Can you tell me IC50 for the items I'm about to list?
# test_system: BCL6 (Homo sapiens (Human), UniProt P41182)
# method: BCL6 TR-FRET assay (BCL6-Avitag-Biotin / BCoR-Cy5 peptide)
# Type: binding
# recorded_conditions: read-out: IC50

# molecule, test_system, assay_result
measured = [
    ("CNC(=O)COc1cc2cc(Nc3nc(N4CCC(O[C@@H]5C[C@@H](COc6cccc7c6C(=O)N(C6CCC(=O)NC6=O)C7=O)N(C)C5)CC4)ncc3Cl)ccc2n(C(C)C)c1=O (stereo partly drawn) [compound 478]", "BCL6 (Homo sapiens (Human), UniProt P41182)", "≥ 100 nM"),
    ("CNC(=O)COc1cc2cc(Nc3nc(N4CCC(O[C@H]5C[C@@H](Oc6cccc7c6C(=O)N(C6CCC(=O)NC6=O)C7=O)CN(C)C5)CC4)ncc3Cl)ccc2n(C(C)C)c1=O (stereo partly drawn) [compound 477]", "BCL6 (Homo sapiens (Human), UniProt P41182)", "10 to 50 nM"),
]

// switching to the query molecule
Write down the reported IC50 (system: BCL6 (Homo sapiens (Human), UniProt P41182)) of CNC(=O)COc1cc2cc(Nc3nc(N4CCC5(CC4)CN(CC4CCN(c6cccc(C(=O)NC7CCC(=O)NC7=O)c6F)CC4)C5)ncc3Cl)ccc2n(C(C)C)c1=O (stereo not drawn) [compound 450]
< 10 nM

* * *

# test_system: UniProtKB P41182
# method: Immunofluorescence high content imaging of BCL6 degradation in T47D cells
# Format: cell-based
measured_endpoint: IC50

Hi team, please reply with IC50 for each item in this list.
1. CCn1c(=O)c(OCC(=O)NC)cc2cc(Nc3cc(N4CCN(C(C)(C)C5CCN(c6ccc7c(c6)C(=O)N(C6CCC(=O)NC6=O)C7=O)CC5)CC4)ncc3Cl)ccc21 (centres unmarked)
2. CNC(=O)COc1cc2cc(Nc3nc(N4CCN(C)CC4)ncc3Cl)ccc2n(CCCOc2ccc3c(c2)C(=O)N(C2CCC(=O)NC2=O)C3=O)c1=O (centres unmarked)
3. CNC(=O)COc1cc2cc(Nc3nc(N4CCN(CC5CCN(c6ccc(C(=O)NC7CCC(=O)NC7=O)c(F)c6)CC5)CC4)ncc3Cl)ccc2n(C)c1=O (centres unmarked)
4. CNC(=O)COc1cc2cc(Nc3nc(N4CCC[C@H](COc5ccc6c(c5)C(=O)N(C5CCC(=O)NC5=O)C6=O)C4)ncc3Cl)ccc2n(C)c1=O (some centres unmarked)
5. CNC(=O)COc1cc2cc(Nc3nc(N4CCOC(CN5CCN(c6ccc7c(c6)C(=O)N(C6CCC(=O)NC6=O)C7=O)CC5)C4)ncc3Cl)ccc2n(C)c1=O (centres unmarked)
6. CNC(=O)COc1cc2cc(Nc3cc(N4CCN(C(C)(C)C5CCN(c6ccc7c(c6)C(=O)N(C6CCC(=O)NC6=O)C7=O)CC5)CC4)ncc3Cl)ccc2n(C(C)C)c1=O (centres unmarked)
7. CNC(=O)COc1cc2cc(Nc3nc(N4CCN(C)C(COc5cccc6c5C(=O)N(C5CCC(=O)NC5=O)C6=O)C4)ncc3Cl)ccc2n(C)c1=O (centres unmarked)

1: < 10 nM; 2: ≥ 100 nM; 3: ≥ 100 nM; 4: 10 to 50 nM; 5: 10 to 50 nM; 6: 10 to 50 nM; 7: ≥ 100 nM

Hi team, please reply with IC50 for each item in this list.
1. CCn1c(=O)c(OCC(=O)NC)cc2cc(Nc3nc(N4CCN(C(C)(C)C5CCN(c6ccc7c(c6)CN(C6CCC(=O)NC6=O)C7=O)CC5)CC4)ncc3Cl)ccc21 (centres unmarked)
2. CC(=O)COc1cc2cc(Nc3nc(N4CCC(OC5CN(c6ccc7c(c6)C(=O)N(C6CCC(=O)NC6=O)C7=O)C5)CC4)ncc3Cl)ccc2n(C)c1=O (centres unmarked)

1. < 10 nM
2. 10 to 50 nM

Hi team, please reply with IC50 for each item in this list.
1. CC(=O)COc1cc2cc(Nc3nc(N4CC(OC5CCN(c6ccc7c(c6)C(=O)N(C6CCC(=O)NC6=O)C7=O)CC5)C4)ncc3Cl)ccc2n(C)c1=O (centres unmarked)
2. CNC(=O)COc1cc2cc(Nc3nc(N4CCN(CC5CN(c6ccc7c(c6)C(=O)N(C6CCC(=O)NC6=O)C7=O)C5)CC4)ncc3Cl)ccc2n(C)c1=O (centres unmarked)

1: 10 to 50 nM; 2: < 10 nM
